Biological target: human Fc (human)
Test: ELISA; negative control
Form field: optical density (one value per entry).
# value in OD; strip the unit string

Solved cases below.
371_G03 (antibody, V domains shown) VH: EVQLLESGGGLVQPGGSLRLSCAASGFTFSSYGMNWVRQAPGKGLEWVANINYNGGYKGYADSVKGRFTISRDNSKNTLYLQMNSLRAEDTAVYYCARSATWHDTHLDYWGQGTLVTVSS VL: DIQMTQSPSSLSASVGDRVTITCRASQSIVTYVNWYQQKPGKAPKLVIYAATSLASGVPSRFSGSGSGTDFTLTISSLQPEDFATYYCQQSYNLPLTFGGGTKVEIK; 0.359
373_C09 (antibody, V domains shown) VH: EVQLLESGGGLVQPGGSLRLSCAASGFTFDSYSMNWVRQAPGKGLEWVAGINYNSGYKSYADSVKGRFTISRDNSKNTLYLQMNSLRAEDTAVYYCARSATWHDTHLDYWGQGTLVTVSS VL: DIQMTQSPSSLSASVGDRVTITCRASQSILTYLNWYQQKPGKAPKLVIYAATSRASGVPSRFSGSGSGTDFTLTISSLQPEDFATYYCQQSYELPLTFGGGTKVEIK; 0.17
365_A10 (antibody, V domains shown) VH: EVQLLESGGGLVQPGGSLRLSCAASGFTFSSYGMHWVRQAPGKGLEWVAGINYNSGYTSYADSVKGRFTISRDNSKNTLYLQMNSLRAEDTAVYYCARSATWHDTHLDYWGQGTLVTVSS VL: DIQMTQSPSSLSASVGDRVTITCRASQSILTYLNWYQQKPGKAPKLVIYAVTSLASGVPSRFSGSGSGTDFTLTISSLQPEDFATYYCQQSYDSPLTFGGGTKVEIK; 0.293
365_A07 (antibody, V domains shown) VH: EVQLLESGGGLVQPGGSLRLSCAASGFTFSSYGMNWVRQAPGKGLEWVAGINYNSGYKGYADSVKGRFTISRDNSKNTLYLQMNSLRAEDTAVYYCARSATWHDTHLDYWGQGTLVTVSS VL: DIQMTQSPSSLSASVGDRVTITCRASQSIVSYLNWYQQKPGKAPKLLIYAATSRASGVPSRFSGSGSGTDFTLTISSLQPEDFATYYCQQSYNLPLTFGGGTKVEIK; 0.284
368_C01 (antibody, V domains shown) VH: EVQLLESGGGLVQPGGSLRLSCAASGFTFDSYGMNWVRQAPGKGLEWVAGINYNGGYTGYADSVKGRFTISRDNSKNTLYLQMNSLRAEDTAVYYCARSATWHDTALDYWGQGTLVTVSS VL: DIQMTQSPSSLSASVGDRVTITCRASQSIITYLNWYQQKPGKAPKLLIYAATSRASGVPSRFSGSGSGTDFTLTISSLQPEDFATYYCQQSYDSPLTFGGGTKVEIK; 0.41
368_H12 (antibody, V domains shown) VH: EVQLLESGGGLVQPGGSLRLSCAASGFTFDSYSMNWVRQAPGKGLEWVASINYNSGYKGYADSVKGRFTISRDNSKNTLYLQMNSLRAEDTAVYYCARSATWHDTHLDYWGQGTLVTVSS VL: DIQMTQSPSSLSASVGDRVTITCRASQSIVTYLNWYQQKPGKAPKLLIYAATSRASGVPSRFSGSGSGTDFTLTISSLQPEDFATYYCQQSYESPLTFGGGTKVEIK; 0.381

Reported optical density of 371_C09 (antibody, V domains shown) VH: EVQLLESGGGLVQPGGSLRLSCAASGFTFDSYSMNWVRQAPGKGLEWVSGINYNGGYKSYADSVKGRFTISRDNSKNTLYLQMNSLRAEDTAVYYCARSATWHDTHLDYWGQGTLVTVSS VL: DIQMTQSPSSLSASVGDRVTITCRASQSILTYVNWYQQKPGKAPKLLIYAASSLQSGVPSRFSGSGSGTDFTLTISSLQPEDFATYYCQQSYDNPLTFGGGTKVEIK : 0.308

Reported optical density of 376_C01 (antibody, V domains shown) VH: EVQLLESGGGLVQPGGSLRLSCAASGFTFDSYSMNWVRQAPGKGLEWVAGINYNGGYTSYADSVKGRFTISRDNSKNTLYLQMNSLRAEDTAVYYCARSANWHDTALDYWGQGTLVTVSS VL: DIQMTQSPSSLSASVGDRVTITCRASQSILTYLNWYQQKPGKAPKLLIYAATSLASGVPSRFSGSGSGTDFTLTISSLQPEDFATYYCQQSYDNPLTFGGGTKVEIK : 0.324

Reported optical density of 376_B09 (antibody, V domains shown) VH: EVQLLESGGGLVQPGGSLRLSCAASGFTFDSYSMNWVRQAPGKGLEWVANINYNSGYKGYADSVKGRFTISRDNSKNTLYLQMNSLRAEDTAVYYCARSANWHDTALDYWGQGTLVTVSS VL: DIQMTQSPSSLSASVGDRVTITCRASQSILTYVNWYQQKPGKAPKLVIYAATSRASGVPSRFSGSGSGTDFTLTISSLQPEDFATYYCQQSYDLPLTFGGGTKVEIK : 0.227

Reported optical density of 368_D10 (antibody, V domains shown) VH: EVQLLESGGGLVQPGGSLRLSCAASGFTFDSYGMNWVRQAPGKGLEWVAGINYNSGYTSYADSVKGRFTISRDNSKNTLYLQMNSLRAEDTAVYYCARSATWHDTALDYWGQGTLVTVSS VL: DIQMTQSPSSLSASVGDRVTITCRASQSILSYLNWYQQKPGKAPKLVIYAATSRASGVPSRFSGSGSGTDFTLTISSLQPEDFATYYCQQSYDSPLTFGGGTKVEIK : 0.245
